As shown below, each of these binders has a reported pKd value.
biological target: VEGF-165 (UniProt P15692-4 27-191); test: EMSA; middle + top bands combined; PBS + 0.005% Tween 20, pH 7.4 (+50 mM KCl for aptamer B); 2.5 nM aptamer heated at 90 C and cooled, 1 h incubation (temperature not stated, RT?); 7.5% PAGE in 0.5x TB pH 8.3 at 4 C; settings: protein: recombinant; tags: His-tag; chain copies: 2; label: 5' fluorescein
Sequence (P15692 other isoform, or with tags, fused parts or gaps): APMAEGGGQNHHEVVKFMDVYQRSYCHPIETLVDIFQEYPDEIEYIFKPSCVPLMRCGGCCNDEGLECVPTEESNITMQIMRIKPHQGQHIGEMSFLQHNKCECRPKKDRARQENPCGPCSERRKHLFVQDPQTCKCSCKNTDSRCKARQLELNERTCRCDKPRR
pKd: −log10 of the molar value.
endpoint: pKd

binder | endpoint | val
AT10C (structured_DNA) DNA: GCCCGTCTTCCAGACAAGAGTGCAGGGCTTTTTTTTTTCAATTGGGCCCGTCCGTATGGTGGGT | pKd | 7.92
AT20A (structured_DNA) DNA: GCCCGTCTTCCAGACAAGAGTGCAGGGCTTTTTTTTTTTTTTTTTTTTGCCCGTCTTCCAGACAAGAGTGCAGGGC | pKd | 8.26
CT0C (structured_DNA) DNA: CAATTGGGCCCGTCCGTATGGTGGGTCAATTGGGCCCGTCCGTATGGTGGGT | pKd | 7.87

meta.source: paper PMC6883073
